- Tested on: Mus musculus
- measurement-description: Toxicity in PS mouse allografted with mouse P388 cells assessed as change in body weight at 100 ug/kg relative to control
- Type: organism-based
- study-conditions: in vivo, 0.1 mg/kg
So basically: Activity at -0.9 g or higher? That is criterion met. Lower than -0.9 g? That is criterion not met.

Consider the worked cases shown below.
CCCS[C@]12C[C@H](OC(=O)N1)[C@@H](C)[C@@H]1O[C@@]1(C)[C@@H](OC(=O)[C@H](C)N(C)C(=O)C(C)C)CC(=O)N(C)c1cc(cc(OC)c1Cl)C/C(C)=C/C=C/[C@H]2OC; criterion not met
CCO[C@]12C[C@H](OC(=O)N1)[C@@H](C)[C@@H]1O[C@@]1(C)[C@@H](OC(=O)[C@H](C)N(C)C(C)=O)CC(=O)N(C)c1cc(cc(OC)c1Cl)C/C(C)=C/C=C/[C@H]2OC; criterion not met
CCC(=O)O[C@H]1CC(=O)N(C)c2cc(cc(OC)c2Cl)C/C(C)=C/C=C/[C@@H](OC)[C@@]2(O)C[C@H](OC(=O)N2)[C@@H](C)[C@@H]2O[C@@]12C; criterion not met
CCCS[C@]12C[C@H](OC(=O)N1)[C@@H](C)[C@@H]1O[C@@]1(C)[C@@H](OC(=O)[C@H](C)N(C)C(C)=O)CC(=O)N(C)c1cc(cc(OC)c1Cl)C/C(C)=C/C=C/[C@H]2OC; criterion met
COc1cc2cc(c1Cl)N(C)C(=O)C[C@H](OC(=O)[C@H](C)N(C)C(=O)C(C)C)[C@]1(C)O[C@H]1[C@H](C)[C@@H]1C[C@@](OC)(NC(=O)O1)[C@H](OC)/C=C/C=C(\C)C2; criterion not met
COc1cc2cc(c1Cl)N(C)C(=O)C[C@H](OC(=O)CBr)[C@]1(C)O[C@H]1[C@H](C)[C@@H]1C[C@@](O)(NC(=O)O1)[C@H](OC)/C=C/C=C(\C)C2; criterion not met
COc1cc2cc(c1Cl)N(C)C(=O)CC(O)C1(C)OC1C(C)C1CC(O)(NC(=O)O1)C(OC)/C=C/C=C(\C)C2 (stereo not given); criterion met
COc1cc2cc(c1Cl)NC(=O)/C=C/C(C)=C/[C@H](C)[C@@H]1C[C@@](O)(NC(=O)O1)[C@H](OC)/C=C/C=C(\C)C2; criterion met

# evaluate next
Confirm if Activity reported for the compound "C/C=C/C(=O)O[C@H]1CC(=O)N(C)c2cc(cc(OC)c2Cl)C/C(C)=C/C=C/[C@@H](OC)[C@@]2(O)C[C@H](OC(=O)N2)[C@@H](C)[C@@H]2O[C@@]12C" is -0.9 g or above.
criterion not met

---

- Test system: Mus musculus
- measurement-description: Toxicity in PS mouse allografted with mouse P388 cells assessed as change in body weight at 6.3 ug/kg relative to control
- Type: organism-based
- study-conditions: in vivo, 0.0063 mg/kg
metric-name: Activity
Lab note: write values as number then unit, every time.

Return reported Activity. Input compound: "COc1cc2cc(c1Cl)N(C)C(=O)/C=C/[C@]1(C)O[C@H]1[C@H](C)[C@@H]1C[C@@](O)(NC(=O)O1)[C@H](OC)/C=C/C=C(\C)C2"
0.3 g

---

- Test system: Mus musculus
- measurement-description: Toxicity in PS mouse allografted with mouse P388 cells assessed as survival at 0.2 ug/kg after 4 days
- Format: organism-based
- study-conditions: in vivo, 0.0002 mg/kg, 96 h
metric-name: Activity

Solved entries (count: 4):
CCC(=O)N(C)[C@@H](C)C(=O)O[C@H]1CC(=O)N(C)c2cc(cc(OC)c2Cl)C/C(C)=C/C=C/[C@@H](OC)[C@@]2(O)C[C@H](OC(=O)N2)[C@@H](C)[C@@H]2O[C@@]12C; Non-toxic
COc1cc2cc(c1Cl)NC(=O)/C=C/[C@]1(C)O[C@H]1[C@H](C)[C@@H]1C[C@@](O)(NC(=O)O1)[C@H](OC)/C=C/C=C(\C)C2; Non-toxic
COc1cc2cc(c1Cl)N(C)C(=O)C[C@H](OC(=O)[C@H](C)N(C)C(=O)C(C)C)[C@]1(C)O[C@H]1[C@H](C)[C@@H]1C[C@@](O)(NC(=O)O1)[C@H](OC)/C=C/C=C(\C)C2; Non-toxic
COc1cc2cc(c1Cl)N(C)C(=O)/C=C/[C@]1(C)O[C@H]1[C@H](C)[C@@H]1C[C@@](O)(NC(=O)O1)[C@H](OC)/C=C/C=C(\C)C2; Non-toxic

Return reported Activity. Input compound: COc1cc2cc(c1Cl)N(C)C(=O)C[C@H](OC(=O)C(C)C)[C@]1(C)O[C@H]1[C@H](C)[C@@H]1C[C@@](O)(NC(=O)O1)[C@H](OC)/C=C/C=C(\C)C2OC(C)=O (stereo partly specified)
Non-toxic

Return reported Activity. Input compound: "COc1cc2cc(c1Cl)N(C)C(=O)C[C@H](OC(=O)[C@H](C)N(C)C(=O)CC(C)C)[C@]1(C)O[C@H]1[C@H](C)[C@@H]1C[C@@](O)(NC(=O)O1)[C@H](OC)/C=C/C=C(\C)C2"
Non-toxic
